Target: tyrosinase (Mus musculus)
Sequence (P11344 19-533): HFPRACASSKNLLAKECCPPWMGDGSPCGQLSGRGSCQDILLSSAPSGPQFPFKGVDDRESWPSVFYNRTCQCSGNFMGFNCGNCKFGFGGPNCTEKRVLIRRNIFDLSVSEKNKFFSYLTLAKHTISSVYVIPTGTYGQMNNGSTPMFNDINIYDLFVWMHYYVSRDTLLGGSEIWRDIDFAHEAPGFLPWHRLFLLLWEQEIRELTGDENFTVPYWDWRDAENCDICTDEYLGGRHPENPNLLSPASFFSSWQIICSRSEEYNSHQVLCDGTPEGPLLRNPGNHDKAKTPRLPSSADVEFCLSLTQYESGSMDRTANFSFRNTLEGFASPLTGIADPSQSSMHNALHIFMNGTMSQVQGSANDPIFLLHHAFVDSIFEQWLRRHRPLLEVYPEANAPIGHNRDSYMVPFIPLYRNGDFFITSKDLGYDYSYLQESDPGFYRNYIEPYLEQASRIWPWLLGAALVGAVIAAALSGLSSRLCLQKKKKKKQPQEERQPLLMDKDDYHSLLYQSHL
Experiment: Activity of tyrosinase in B16F10 cells
Format: cell-based
Conditions: 10 μg to 1 pg, versus control group, FIG. 8
Description: In order to evaluate the effect of promoting black hair formation, the activity of tyrosinase was measured in Sk-mel-31, a human melanoma cell, and B16F10, a mouse melanoma cell. The cells were cultivated in an incubator at 37° C. […] Then, the supernatant was taken and absorbance was measured at 505 nm.
READOUT: tyrosinase activity

{"columns": ["SMILES STRUCTURE", "MEASURED RESULT"],
 "data": [
  ["[Nd]", "relatively lower effect"],
  ["[Sm]", "relatively lower effect"]
]}
